- Test system: Mv4-11 cells
- test summary: Inhibition of the proliferation of Mv4-11 cells (CCK8)
- Type: cell-based
- measurement parameters: Homo sapiens, MV4-11, 48 h, Mv4-11 cell proliferation, CCK8 OD450
- Procedure: The inhibition effect of the compounds of the present disclosure on the proliferation of Mv4-11 cells (ATCC:CRL-9591TM) in vitro was determined by the following method: […] Detection: 10 uL CCK8 (Dojindo, CK 04) solution was added to each well, incubated in 37° C. 5% CO2 cell incubator for 2 hours, and then the OD450 value was read by Synegry H1 (BioTek) multimode microplate reader. […]
measured attribute: log10 IC50 (log10 of the value in nM)

compound: CC(=O)N[C@@H]1CCC[C@H](C(=O)Nc2cc(-c3cc(C#N)n4c3CC(C)(C)C4)ccn2)C1
log10 IC50: 0.34

compound: CC1(C)Cc2c(-c3cc(NC(=O)[C@@H]4C[C@H]5C[C@H](C(N)=O)C[C@H]5C4)ncc3Cl)cc(C(N)=O)n2C1
log10 IC50: 0.90

compound: CC(=O)N[C@@H]1CCC[C@H](C(=O)Nc2cc(-c3cnn4c3CC(C)(C)C4)c(Cl)cn2)C1 [AZD4573, reference compound]
log10 IC50: 0.62

compound: CC1(C)Cc2c(-c3cc(NC(=O)[C@H]4C[C@H]5C[C@@H](C(N)=O)C[C@H]5C4)ncc3Cl)cc(C(N)=O)n2C1
log10 IC50: 1.16

compound: CC(=O)N[C@@H]1CCC[C@H](C(=O)Nc2cc(-c3cnn4c3CC(C)(C)C4)c(C(F)(F)F)cn2)C1
log10 IC50: 1.18

compound: CC(=O)N1CC[C@@]2(CC[C@@H](C(=O)Nc3cc(-c4cnn5c4CC(C)(C)C5)c(Cl)cn3)C2)C1 (single isomer, unassigned)
log10 IC50: 1.09

compound: CC(=O)N[C@H]1C[C@@H]2C[C@@H](C(=O)Nc3cc(-c4cc(C(N)=O)n5c4CC(C)(C)C5)c(F)cn3)C[C@@H]2C1
log10 IC50: 0.36

compound: CC(=O)N[C@@H]1CCC[C@H](C(=O)Nc2cc(-c3cc(C#N)c4n3CC(C)(C)C4)c(F)cn2)C1
log10 IC50: 0.54

compound: CC(=O)N[C@@H]1C[C@@H]2C[C@@H](C(=O)Nc3cc(-c4cc(C#N)n5c4CC(C)(C)C5)c(Cl)cn3)C[C@@H]2C1 (single isomer, unassigned)
log10 IC50: 1.05

compound: CC(=O)N[C@@H]1CCC[C@H](C(=O)Nc2cc(-c3cc(C#N)n4c3CC(C)(C)C4)c(Cl)cn2)C1
log10 IC50: 0.20

compound: CC(=O)N[C@H]1C[C@@H]2C[C@H](C(=O)Nc3cc(-c4cc(C#N)n5c4CC(C)(C)C5)c(Cl)cn3)C[C@@H]2C1 (single isomer, unassigned)
log10 IC50: 1.03

compound: CC(=O)N1C[C@H]2CC(C(=O)Nc3cc(-c4cc(C#N)n5c4CC(C)(C)C5)c(Cl)cn3)C[C@H]2C1 (single isomer, unassigned)
log10 IC50: 1.24

###

- Tested on: Mv4-11 cells
- test summary: Inhibition of the proliferation of Mv4-11 cells (CCK8)
- Assay type: cell-based
- measurement parameters: Mv4-11 cell proliferation, 48 hours, CCK8 OD450
IC50 listing for selected compounds.
measured attribute: IC50 (nM)

compound: CC(=O)N1C[C@H]2CC(C(=O)Nc3cc(-c4cc(C(N)=O)n5c4CC(C)(C)C5)ccn3)C[C@H]2C1 (single isomer, unassigned) [Compound 32-1]
measured attribute: IC50
value reported: 3.5
//
compound: CC(=O)N1C[C@H]2CC(C(=O)Nc3cc(-c4cc(C(N)=O)n5c4CC(C)(C)C5)c(Cl)cn3)C[C@H]2C1 (single isomer, unassigned) [Compound 8-1]
measured attribute: IC50
value reported: 7.7
//
compound: CNC(=O)C1C[C@@H]2CC(C(=O)Nc3cc(-c4cc(C(N)=O)n5c4CC(C)(C)C5)c(Cl)cn3)C[C@@H]2C1 (single isomer, unassigned) [Compound 26-2]
measured attribute: IC50
value reported: 5.1
//
compound: CC(=O)N1C[C@H]2CC(C(=O)Nc3cc(-c4cc(C(N)=O)n5c4CC(C)(C)C5)ccn3)C[C@H]2C1 (single isomer, unassigned) [Compound 32-2]
measured attribute: IC50
value reported: 0.9
//
compound: CC(=O)N1C[C@H]2CC(C(=O)Nc3cc(-c4cc(C(N)=O)n5c4CC(C)(C)C5)c(Cl)cn3)C[C@H]2C1 (single isomer, unassigned) [Compound 8-2]
measured attribute: IC50
value reported: 0.4

These entries and their values trace back to patent US20230192703A1.
